Biological target: SIX1-Q177R homeodomain (human, UniProt Q15475 108-198, Q177R)
Sequence: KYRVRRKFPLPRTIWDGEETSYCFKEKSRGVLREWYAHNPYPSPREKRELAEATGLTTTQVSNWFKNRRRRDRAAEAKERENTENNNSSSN
Experiment: universal protein binding microarray; Universal all-10-mer PBM (8x60K, AMADID 030236), 300 nM GST-tagged protein, Alexa Fluor 488 anti-GST; buffer, salt, pH and temperature not stated (as in Berger); high values mean tight binding
Conditions: protein: ivt; tags: N-terminal GST; dsDNA, one strand shown
Whole data set: some 33,000 sequences, median “e-score” near -0.05, cut for the highest 2% near 0.38. For the sample, the highest values were picked, then their nearest neighbours and some sequences at random.
outcome_measure: binding signal (E-score)
Numbers only, in E-score.

Sample records with binding signal:
{"columns": ["chain_sequence", "outcome_measure", "recorded_measurement"],
 "data": [
  ["GTGTTGGA", "binding signal", 0.414],
  ["CACCGTAG", "binding signal", 0.255],
  ["GGGTTGTA", "binding signal", 0.169],
  ["CACTTTAC", "binding signal", 0.221]
]}

Each of the following entries comes with a recorded value; kindly state binding signal for each.
1. ACCCGGTG
2. GTGTTTCA
3. GGTGGGTA
4. GTTGTGTA
5. CCGTTGAC
6. GTGTTGTA
7. AGTGTTTA
8. AGTGTTCG

[0.36, 0.357, 0.165, 0.255, 0.16, 0.389, 0.296, 0.369]

All figures here come from paper PMC10668032.
